Biological target: Aryl hydrocarbon receptor (Homo sapiens) (UniProt P35869)
Sequence (P35869 whole entry, looked up): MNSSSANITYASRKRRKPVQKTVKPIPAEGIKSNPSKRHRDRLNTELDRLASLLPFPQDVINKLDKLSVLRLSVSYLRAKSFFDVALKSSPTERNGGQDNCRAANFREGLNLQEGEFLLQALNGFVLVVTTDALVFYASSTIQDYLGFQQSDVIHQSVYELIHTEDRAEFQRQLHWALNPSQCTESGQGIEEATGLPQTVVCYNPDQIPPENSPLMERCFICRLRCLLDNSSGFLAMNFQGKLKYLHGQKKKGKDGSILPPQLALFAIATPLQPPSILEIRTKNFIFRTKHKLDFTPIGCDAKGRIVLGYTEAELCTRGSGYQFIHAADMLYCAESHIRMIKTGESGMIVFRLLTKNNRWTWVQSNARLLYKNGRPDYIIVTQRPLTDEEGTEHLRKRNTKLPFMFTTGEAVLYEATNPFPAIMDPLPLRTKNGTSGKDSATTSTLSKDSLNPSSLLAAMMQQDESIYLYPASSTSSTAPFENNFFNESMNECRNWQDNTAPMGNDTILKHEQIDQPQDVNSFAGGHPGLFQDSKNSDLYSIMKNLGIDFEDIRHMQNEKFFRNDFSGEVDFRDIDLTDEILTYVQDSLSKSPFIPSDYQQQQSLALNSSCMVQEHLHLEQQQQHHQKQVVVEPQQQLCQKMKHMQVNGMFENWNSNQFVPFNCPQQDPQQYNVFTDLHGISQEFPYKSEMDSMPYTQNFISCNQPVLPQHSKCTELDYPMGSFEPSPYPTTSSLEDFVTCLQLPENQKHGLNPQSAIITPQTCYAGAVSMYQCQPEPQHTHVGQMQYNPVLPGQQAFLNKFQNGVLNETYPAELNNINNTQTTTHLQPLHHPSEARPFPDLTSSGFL
Experiment: AHR activators, primary screen, cell-based, luminescence, luciferase reporter, human (AID 2796);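 further: 0% = vehicle wells and 100% = reference agonist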
Conditions: AHR-responsive luciferase reporter cells, at 5 µM
In all, about 320,000 compounds went through this assay and about 8,000 (2.5%) were called active. No stated cut-off is given here; in the data, active means activation above about 47%; inactive means the rest. The list comes from a sample in which actives are over-represented; it also holds close analogues and randomly drawn compounds.
Labels: class 1 for active, class 0 for inactive

| compound | target | class-name |
| --- | --- | --- |
| OC(c1ccc(Cl)cc1)C(CN1CCOCC1)c1ccccc1 (stereo not given) | Aryl hydrocarbon receptor (Homo sapiens) (UniProt P35869) | class 0 |
| COc1cc(OC)cc(-c2nc3ccccc3c(=O)n2NC(=O)c2cccnc2Cl)c1 | Aryl hydrocarbon receptor (Homo sapiens) (UniProt P35869) | class 0 |
| CC1CCCN(S(=O)(=O)c2ccc(N(C(=O)c3cnccn3)C(C(=O)NC3CCCCC3)c3cccs3)cc2)C1 (stereo not given) | Aryl hydrocarbon receptor (Homo sapiens) (UniProt P35869) | class 0 |
| Cc1cccc(-c2nc3ccccc3c(=O)n2NC(=O)Cc2ccc(Cl)cc2)c1 | Aryl hydrocarbon receptor (Homo sapiens) (UniProt P35869) | class 0 |
| O=C(Nn1c(-c2ccc(Cl)cc2)nc2ccccc2c1=O)c1cccnc1Cl | Aryl hydrocarbon receptor (Homo sapiens) (UniProt P35869) | class 1 |

----------
# maps each entry to its activation
Biological target: Aryl hydrocarbon receptor (Homo sapiens)
Assay: AHR activators, primary screen, cell-based, luminescence, luciferase reporter, human (AID 2796);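 further: 0% = vehicle wells and 100% = reference agonist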
Conditions: AHR-responsive luciferase reporter cells, at 5 µM, hits give high values
In all, about 320,000 compounds went through this assay and about 8,000 (2.5%) were called active. The entries come from a sample that favours actives as a whole.
assay-readout: activation (%)

| compound | target | assay-readout | obs-value |
| --- | --- | --- | --- |
| COC(C(=O)Nc1ccc(S(=O)(=O)Nc2ccc(C)c(C)c2)cc1)c1ccccc1 (stereo unspecified) | Aryl hydrocarbon receptor (Homo sapiens) | activation | -0.6 |
| Cc1cc(=O)oc2cc(OCC(=O)N3CCN(c4ccc(F)cc4)CC3)c(Cl)cc12 | Aryl hydrocarbon receptor (Homo sapiens) | activation | -0.42 |
| O=C1OC[C@@H]2CCCN2C(=O)[C@H](CC(=O)N(CCO)Cc2ccccc2)C/C=C\CC[C@@H]1Cc1ccc(F)cc1 | Aryl hydrocarbon receptor (Homo sapiens) | activation | -2.45 |
| Cc1c(CN2CC[C@@H](N3CCN(c4ccccn4)CC3)[C@H](O)C2)[nH]c2ccc(F)cc12 | Aryl hydrocarbon receptor (Homo sapiens) | activation | 2.27 |
| COCCSc1nnc(NC(=O)c2cc(OC)c(OC)cc2[N+](=O)[O-])s1 | Aryl hydrocarbon receptor (Homo sapiens) | activation | 1.43 |
| CCN(CC)CCN(C(=O)c1cc(Cl)sc1Cl)c1nc2cc3c(cc2s1)OCO3 | Aryl hydrocarbon receptor (Homo sapiens) | activation | 72.1 |
| O=C(CSc1nn(-c2ccc(F)cc2)c(=S)s1)NC1CCS(=O)(=O)C1 (stereo unspecified) | Aryl hydrocarbon receptor (Homo sapiens) | activation | 3.28 |
| Brc1ccc(Nc2c3c(nc4ncnn24)CCC3)cc1 | Aryl hydrocarbon receptor (Homo sapiens) | activation | 104 |
| Cc1ccc(/C([O-])=C(/C(=S)NCc2ccco2)[n+]2ccccc2)cc1[N+](=O)[O-] | Aryl hydrocarbon receptor (Homo sapiens) | activation | 2.88 |
| CCCCC(CC)CNCc1cccn1CCN1CCOCC1 (stereo unspecified) | Aryl hydrocarbon receptor (Homo sapiens) | activation | 1.27 |
| COc1ccc(N(CC(=O)NC2CCCCC2)C(=O)CNC(=O)c2ccco2)c(OC)c1 | Aryl hydrocarbon receptor (Homo sapiens) | activation | 0.47 |
| FC(F)(F)c1ccc2c3n(nc2c1)CCN=C3c1ccc(Cl)cc1 | Aryl hydrocarbon receptor (Homo sapiens) | activation | 73.6 |
| Fc1ccc2[nH]c3c(N4CCSCC4)ncnc3c2c1 | Aryl hydrocarbon receptor (Homo sapiens) | activation | 58.6 |
| COCc1c(C(=O)OCC(=O)Nc2ccc(OC(F)F)cc2)oc2ccccc12 | Aryl hydrocarbon receptor (Homo sapiens) | activation | -0.02 |
| O=C(Nc1cc(C(F)(F)F)ccc1Cl)C(=O)N1CCCCC1 | Aryl hydrocarbon receptor (Homo sapiens) | activation | 4.43 |
| COC(=O)c1cc(C(=O)OCC(=O)Nc2cc(C)on2)cc([N+](=O)[O-])c1 | Aryl hydrocarbon receptor (Homo sapiens) | activation | 0.26 |
| COc1cccc(NC(=O)Nc2nnc(N3CCCCC3C)s2)c1 (stereo unspecified) | Aryl hydrocarbon receptor (Homo sapiens) | activation | 62.3 |
| O=[N+]([O-])c1cccc(/C([O-])=C(/C(=S)Nc2ccccc2F)[n+]2ccccc2)c1 | Aryl hydrocarbon receptor (Homo sapiens) | activation | 49.5 |
| COc1cccc(C(=O)Nc2nnc(S(=O)(=O)N3CCCCC3)s2)c1 | Aryl hydrocarbon receptor (Homo sapiens) | activation | 9.59 |
| CN(C)CCN(C(=O)C1CCCCC1)c1nc2cc3c(cc2s1)OCO3 | Aryl hydrocarbon receptor (Homo sapiens) | activation | 4.17 |
| CC(=O)Nc1ccc(S(=O)(=O)NCCC(=O)N2CCN(c3ccccc3Cl)CC2)cc1 | Aryl hydrocarbon receptor (Homo sapiens) | activation | 0.74 |
